Where do these numbers come from? They come from patent US9399623B2.

# assay.system: UniProt:Q99572
# Sequence (Q99572 1-595): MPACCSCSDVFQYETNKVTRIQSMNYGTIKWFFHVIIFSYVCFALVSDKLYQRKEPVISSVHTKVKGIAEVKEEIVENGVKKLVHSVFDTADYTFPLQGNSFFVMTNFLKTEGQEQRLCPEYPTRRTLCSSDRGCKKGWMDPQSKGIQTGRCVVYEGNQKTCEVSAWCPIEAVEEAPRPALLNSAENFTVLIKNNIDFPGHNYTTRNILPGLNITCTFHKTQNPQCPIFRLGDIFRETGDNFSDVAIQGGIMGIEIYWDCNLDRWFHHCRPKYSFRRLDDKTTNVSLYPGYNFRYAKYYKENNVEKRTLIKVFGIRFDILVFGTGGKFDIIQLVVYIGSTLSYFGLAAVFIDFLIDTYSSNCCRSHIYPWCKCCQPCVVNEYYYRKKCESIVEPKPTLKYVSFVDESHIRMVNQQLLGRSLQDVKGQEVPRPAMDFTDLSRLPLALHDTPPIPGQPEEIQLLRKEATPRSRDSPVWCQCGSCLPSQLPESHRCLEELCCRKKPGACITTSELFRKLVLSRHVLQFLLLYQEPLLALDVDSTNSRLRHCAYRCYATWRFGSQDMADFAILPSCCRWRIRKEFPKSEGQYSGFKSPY
# assay.method.text: Pore permeation assay (YO PRO dye uptake, BzATP-induced)
# Type: cell-based
# Parameters: expressed in transfected cells; host or cells: HEK293
# measurement.setup: HEK293 transfected with human P2X7 receptor; YO PRO dye 1 uM, BzATP 10 uM; read-out: hP2X7 IC50
pIC50: −log10 of the molar value.
property.label: pIC50

Recorded results for 3 compounds are shown here.
INSERT INTO measurements (compound, property_label, endpoint_value) VALUES
  ('O=C(NCC1CCC(F)(F)CC1)c1c(Cl)ccc2nc(C#CCO)ccc12 [Compound 19]', 'pIC50', '> 8.00'),
  ('O=C(NCC1CCCC(F)(F)C1)c1c(Cl)ccc2nc(N3CCC(N4CCCC4)C3)ccc12 (stereo not drawn) [Compound 34]', 'pIC50', '7.00 to 8.00'),
  ('O=C(NCC1CCC(F)(F)CC1)c1c(Cl)ccc2nc(N3CCCC3)ccc12 [Compound 50]', 'pIC50', '7.00 to 8.00');

Q. Can you look up the measured pIC50 of O=C(NCC1CCC(F)(F)CC1)c1c(Cl)ccc2nc(N3CC(F)(F)C3)ccc12 [Compound 74] for me?
A. 6.30 to 7.00

Q. Please give the result for C[C@@H]1CCC[C@](O)(CNC(=O)c2c(Cl)ccc3nc(N4CCCC4)ccc23)C1 [Compound 16] too.
A. > 8.00

Q. Entry to check: O=C(NCC1CCC(F)(F)CC1)c1c(Cl)ccc2ncccc12 [Compound 78]
A. 6.30 to 7.00

Q. Follow-up entry: O=C(NCC1CCC(F)(F)CC1)c1c(Cl)ccc2nc(N3CC[C@H](CO)C3)ccc12 [Compound 29]
A. 7.00 to 8.00

Q. Consider next the compound CNC1CCN(c2ccc3c(C(=O)NCC4CCC(F)(F)CC4)c(Cl)ccc3n2)C1 (stereo not drawn) [Compound 17] in the same way.
A. > 8.00

Q. What do you get for O=C(NC[C@@]1(O)CCCC(F)(F)C1)c1c(Cl)ccc2nc(N3CCC(F)(F)C3)ccc12 [Compound 24] ?
A. 7.00 to 8.00

Q. And the next one, O=C(O)CCNc1ccc2c(C(=O)NCC3CCC(F)(F)CC3)c(Cl)ccc2n1 [Compound 83] ?
A. < 6.00

Q. Repeat for the following compound: CN(C)[C@@H]1CCN(c2ccc3c(C(=O)NCC4(O)CCC(F)(F)CC4)c(Cl)ccc3n2)C1 [Compound 23]
A. 7.00 to 8.00

Q. Proceed to C[C@@H]1CCC[C@](O)(CNC(=O)c2c(Cl)ccc3nc(C4CCCC4)ccc23)C1 [Compound 15]
A. > 8.00

Q. Another: CN(C)[C@H]1CCN(c2ccc3c(C(=O)NCC4(O)CCC(F)(F)CC4)c(Cl)ccc3n2)C1 [Compound 20]
A. 7.00 to 8.00

Q. Again, but for O=C(NCC1CCC(F)(F)CC1)c1c(Cl)ccc2nc(N3CC[C@@H](F)C3)ccc12 [Compound 33]
A. 7.00 to 8.00
